tested.on: T1, ZFP SBS#1253 (synthetic)
T1 chain: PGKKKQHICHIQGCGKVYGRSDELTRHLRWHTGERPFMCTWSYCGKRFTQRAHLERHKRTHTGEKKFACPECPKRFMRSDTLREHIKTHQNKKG
test.summary: EMSA
experimental.parameters: tags: MBP fusion
value.kind: Kd (nM)
Write it as a number; the unit nM goes unstated.

Qu. Please report Kd for the following binder: CCGGGAGCG (dsDNA) DNA 1: CCGGGAGCG DNA 2: CGCTCCCGG
Ans. 0.228
